B1: MYBL2 (parent)
chain: VKKSCWTEEEDRIICEAHKVLGNR

Variants of: B1
Assay: protein stability index of a GFP-peptide fusion (GPS, HEK-293T) (PSI 1-6); higher = more stable;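 further: lentivirally expressed fusions sorted by FACS into six bins by GFP to DsRed ratio, PSI derived from sequencing read proportions per bin multiplied by bin number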
Details: c terminus: a fixed tail appended
Returns one of 1 or 0; 1 when protein stability index is >= 3.

G22M | 0
H18V | 0
A17E | 1
E10Y | 0
E16Y | 0
N23L | 0
E9M | 0
K19L | 0
K19Q | 1
I14V | 1
R24S | 1
L21I | 1
D11V | 1
G22T | 0
H18E | 1
R24W | 0
E9Y | 0
N23K | 0
R12E | 1
D11N | 1
E16D | 1
N23R | 1
I14S | 1
E10F | 0
R12L | 0
L21T | 1
R12A | 1
I13E | 1
K19V | 1
E9P | 0
I13T | 1
I14R | 1
R12C | 0
R24H | 1
L21K | 1
C15W | 0
H18D | 1
E16G | 1
E10V | 0
R12S | 1
D11Y | 0
L21W | 1
D11F | 0
C15Q | 1
G22Y | 0
N23E | 1
G22S | 0
E10N | 1
R12V | 1
R24V | 1
